- tested system: Giardia lamblia carbamate kinase (glCK) (Giardia intestinalis)
- Sequence (A8BB85 1-316): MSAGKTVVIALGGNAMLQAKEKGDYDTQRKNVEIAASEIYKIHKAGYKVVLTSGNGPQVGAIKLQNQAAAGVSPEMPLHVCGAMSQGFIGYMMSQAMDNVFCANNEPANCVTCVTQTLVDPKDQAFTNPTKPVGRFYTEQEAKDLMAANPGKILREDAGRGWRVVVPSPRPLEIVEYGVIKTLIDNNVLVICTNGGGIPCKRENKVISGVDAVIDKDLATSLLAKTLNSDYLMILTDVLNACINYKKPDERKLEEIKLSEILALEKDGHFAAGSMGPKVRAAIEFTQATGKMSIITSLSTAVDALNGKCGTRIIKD
- experimental details: Luminescence-based carbamate kinase assay in 1536-well format
- Assay type: biochemical
- recorded conditions: IC50 Luminescence Assay, Table 3, secondary assay comparison
Where a name gives a salt, the structure may show the parent alone.
property name: IC50 (µM)
Numbers only, in µM.

Lab note: each compound below needs its IC50 filled in.
1. CN(C)C(=S)SSC(=S)N(C)C
2. O=C(O)[C@@H](S)[C@@H](S)C(=O)O
3. O=C(O)c1cc(O)c(O)c(O)c1
4. CC(C)(C)C(=O)OCOP(=O)(COCCn1cnc2c(N)ncnc21)OCOC(=O)C(C)(C)C
5. Oc1cccc(O)c1O
6. CN1CCc2cccc3c2[C@H]1Cc1ccc(O)c(O)c1-3 [Apomorphine hydrochloride hemihydrate]

OUTPUT:
1: 4.11; 2: 0.65; 3: 0.65; 4: 16.3; 5: 16.3; 6: 3.26

INPUT: Quick one: give measured IC50 for C[C@@](Cc1ccc(O)c(O)c1)(NN)C(=O)O
OUTPUT: 5.8
